# credit: the nanobody polyreactivity screen of Harvey et al. (2022)

- testDescription: yeast display, Sf9 membrane polyspecificity reagent, FACS + sequencing; frameworks hold sequencing errors
resultType: polyreactivity (PSR sort gate)

QVHLVESGGGLVQAGGSLRLSCAACGRTFRSNALGWYSQAPGTEREFVAALSGRGGITYFADSVTGRFSISRDNAKNTVYLQMNSLKPEDTAVDYCNRDVKFHDYVYVTGINSPGYNYWGQGTQVTVSS    low polyreactivity
QVQLVESGGGLVQAGGSLRLSCAASGIIYTTNAMGWYRQAPGKERELVAAIRRSGSTYYADSVKGRFTISRDNAKNNVYLQMNSLKPEDTAVYYCNAKVHYGSRGDYWGQGTQLTVSS    low polyreactivity

----------
- testDescription: yeast display, Sf9 membrane polyspecificity reagent, FACS + sequencing; frameworks hold sequencing errors
resultType: polyreactivity (PSR sort gate)

QVQLVESGGGLVQAGGSLRLSCAASGSILGINVMGWYRPAPGKERELVAAISRRGGSTYYADSVKGRFTISRDNAKNTVYLQMNSLKPEDTAVYYCAATRTARTMGYWGQGTQVTVSS    high polyreactivity
QVQLVESGGGLVQAGGSLRLSCAASGFTFVVNAMAWYRQAPGKEREFVAAIRQSGGSTYYADSVKGRFTISRDNAKNTVYLQMNSLKPEDTAVYYCNAEDWGYGYDYWGQGTQVTVSS    low polyreactivity
QVQLVESGGGLVQAGGSLRLSCAASGYTIVSYAMGWERQAPGKERELVASIRWRGGRTYYADSVKGRFTISRDNAKNTVYLQMNSLKPEDTAVYYCAASTYYSPYVAHYGYWGQGTQVTVSS    high polyreactivity
QVQLVESGGGLVQAGGSLRLSCAASGRTFSYYAMGWYRQAPGKERELVARITYRGGRTYYADSVKGRFTISRDHAKNTVYLQMNSLKPEDTAVYYCNADAIYKRGGRDYWGQGTQVTVSS    high polyreactivity
QVQLVESGGGLVQAGGSLRLSCAASGSIFAANAMGWYRQAPGKERELVADITRGDGTNYADSVKGRFTISRDNAKNTVYLQMNSLKPEDTAVYYCAAEPSQRYPWSGYDYWGQGTQVTVSS    low polyreactivity
QVQLVESGGGLVQAGGSLRLSCAASGNIIYQNAKGLYRQAPGKERELVAAITGRGSSTYYADSVKGRFTISRDNAKNTVYLQMNSMKPEDTAVYYCAADTTPYDGYYGHGYWGQGTQVTVSS    low polyreactivity
QVQLVESGGGLVQAGGSLRVSCAASGFIFYGYTMGWYREAPGKERELVARISRRGGSTYYADSVKGRFTISRDNAKNTVYLQMNSLKPEDTAVYYCATRALGHFDWGQGTQVTVSS    low polyreactivity
QVQLVESGGGLVQAGGSLRLSCAASGSTFGYNAMGWYRQAPGKERELVAAIRISGGTTYYADSVKGRFTSSRDNAKNTVYLQMNSPKPSDTAVYYCAAGTAGTTGSPKFSGYGYDYWGQGTQVTVSS    low polyreactivity
QVQLVESRGVLVQAGGSLRLSCAGSGSTILRYALGWYRQAPGKERELVAAINWSGGGTSYADSVKGRFTISRDNAKNTVYFQMNSLKPEDTAVYYCAAYFRYSNYWSEYWGQGTQVTVSS    high polyreactivity
QVQLVESGGGLVQAGGSLRLSCAASGRTFSIYAMGWYRQAPGKERELVASITNSDGSTYYADSVKGRFTISRDNAKNTVYLQMNSLKPEDTAVYYWNVDSGKYWSLWTYVQYDDYWGQGTQVTVSS    low polyreactivity
QVQLVESGGGLVQAGGILRLNCAASGFIFRRYAMGWSRQAPGKERELVAAISSGGTSTYYADSVKGRFTISRDNAKYTVYLQKNSLKPEDTAVSYCNVDTDPYYWGGDYYWGQGTQVTVSS    high polyreactivity
QVQLVESGGGLVQAGGSLRLSCAASGSIFVYYAMGWYRQAPGKERELVAAISKTGGRTYYADSVKGRFTISRDNAKNTVYLQMNSLKPEDTAVYYCAARYTIRYKRYDYWGQGTQVTVSS    high polyreactivity
QVQLVESGGGLVQAGGSLRLSCAASGSTFHHYAMGWYRQAPGKERELVAAITTSGGRTYYADSVKGRFTISRDNAKNTVYLQMNSLKPEDTAVYYCAADRFFYRGGYYYWGQGTQVTVSS    high polyreactivity
QVQLVESGGGLVQAGGSLRLSCAASGITFVRYAMGWYRQAPGKERELVAAIRQNGGDTYYADSVKRRFTISRDNAKNTDYLQMNSLKPEDTAVYYCNARMRGAGGYTYYYWGQGTQVTVSS    high polyreactivity
QVQLVESGGGLVQAGGSLRLSCAASGRIFSTNAMGWYRQAPGTERELVAAISRRGASTYYADSVKGRFTISRDNAKNTVYLQMNSLKPEDTAVYYCAAVIGTGGRYNYWGQGTQVTVSS    high polyreactivity
QVQLVESGGGLVQAGGSLRLSCAASGITFGRNTLGRYRQAPGKVRELVAAIDSGGNTYADSVKGRFTISRDNAKNTVYLQMNSLKPEDTAVYYCAVDGCEFSSYGYWGQGTQGTVSS    low polyreactivity
QVQLQESGGGLVQAGGNPRLSCAASGNSSWSAHMGWYRQTPGKERELVASNTAGTSTNYADSVKGRFTISRDNAKNTVYLQMNSLKPEDTAVSYCATLGYFSASRTDYDYWGQGTQVTVSS    low polyreactivity
QVQLVESGGGLVQAGGSLRLSCAASGSTFIGNAMGWYRQAPGKERELVADISWSTASTYYADSVKGRFTISRDNAKNTVYLQMNSLKPEDTAVYYCARDPFVYLYLVDYDYWGQGTQVTVSS    low polyreactivity
QVQLVESGGGLVQAGGSLRLSCAASGSTSQPYAMGWYRQAPGQERELVASITNGGITYYADSVKGRFTISRDNAKNTVYLQMNSLKPEDTAVYYCNTVSYTEFDYWGQGTQVTVSS    low polyreactivity
QVQLVESGGGLVQAGGSLRLSCAASGSTFQVYGMGWYRQAPGKERELVAAISRSGGRTYYADSVKGRFTISRDNAKNTVYLQMNSLKPEDTAVYYCAKTYQTTTSKSGYYYWGQGTQVTVSS    high polyreactivity
QVQLVESGGGLVQAGGSLRLSCAASGRIYWNTKGWYRQAPGKERELVASISTGGGRTYYADSVKGRFTISRDNAKNTVYLQMNSLKPEDTAVYYCAARRGAGYSRFNYWGQGTQVTVSS    high polyreactivity
